measured_on: Follicle-stimulating hormone receptor (Homo sapiens) (UniProt P23945)
Sequence (P23945 whole entry): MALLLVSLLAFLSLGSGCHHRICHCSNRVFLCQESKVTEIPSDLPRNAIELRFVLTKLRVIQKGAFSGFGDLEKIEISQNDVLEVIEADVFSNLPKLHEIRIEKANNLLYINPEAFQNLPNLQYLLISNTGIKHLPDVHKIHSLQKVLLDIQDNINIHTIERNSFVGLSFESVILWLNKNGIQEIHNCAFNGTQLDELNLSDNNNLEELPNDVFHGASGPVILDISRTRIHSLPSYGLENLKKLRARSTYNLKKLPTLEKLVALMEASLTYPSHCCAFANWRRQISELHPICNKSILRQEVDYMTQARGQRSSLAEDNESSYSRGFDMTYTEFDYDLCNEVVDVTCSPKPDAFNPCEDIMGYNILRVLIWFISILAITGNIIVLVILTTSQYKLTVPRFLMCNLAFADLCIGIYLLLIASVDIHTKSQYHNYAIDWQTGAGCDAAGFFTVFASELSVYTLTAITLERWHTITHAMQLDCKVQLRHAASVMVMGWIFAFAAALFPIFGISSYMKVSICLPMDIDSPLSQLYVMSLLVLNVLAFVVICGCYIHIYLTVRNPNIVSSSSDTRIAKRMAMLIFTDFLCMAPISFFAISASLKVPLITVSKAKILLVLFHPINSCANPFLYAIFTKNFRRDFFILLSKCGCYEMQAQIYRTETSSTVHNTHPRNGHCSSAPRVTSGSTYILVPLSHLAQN
assay_comment: Antagonist activity at human FSHR receptor expressed in CHO-K1 cells assessed as inhibition of FSH-induced luciferase activity at 10 uM by CRE-driven luciferase reporter gene assay relative to control
readout: Imax

- given_smiles: "CSc1nc(-c2cccc(NCC(=O)NCc3cn(CCOCCOCCn4cc(COc5ccc([C@@]6(C)CC(C)(C)N(C(C)=O)c7ccc(NC(=O)c8ccc(-c9ccccc9)cc8)cc76)cc5)nn4)nn3)c2)c2c(N)c(C(=O)NC(C)(C)C)sc2n1"
  value_reported: "73%"
- given_smiles: "CSc1nc(-c2cccc(NCC(=O)NCc3cn(CCOCCOCCOCCn4cc(COc5ccc([C@@]6(C)CC(C)(C)N(C(C)=O)c7ccc(NC(=O)c8ccc(-c9ccccc9)cc8)cc76)cc5)nn4)nn3)c2)c2c(N)c(C(=O)NC(C)(C)C)sc2n1"
  value_reported: "65%"
- given_smiles: "CSc1nc(-c2cccc(NCC(=O)NCc3cn(CCOCCOCCOCCOCCn4cc(COc5ccc([C@@]6(C)CC(C)(C)N(C(C)=O)c7ccc(NC(=O)c8ccc(-c9ccccc9)cc8)cc76)cc5)nn4)nn3)c2)c2c(N)c(C(=O)NC(C)(C)C)sc2n1"
  value_reported: "72%"
- given_smiles: "CSc1nc(-c2cccc(NCC(=O)NCc3cn(CCOCCn4cc(COc5ccc([C@@]6(C)CC(C)(C)N(C(C)=O)c7ccc(NC(=O)c8ccc(-c9ccccc9)cc8)cc76)cc5)nn4)nn3)c2)c2c(N)c(C(=O)NC(C)(C)C)sc2n1"
  value_reported: "75%"
- given_smiles: "CSc1nc(-c2cccc(NCC(=O)NCc3cn(CCn4cc(COc5ccc([C@@]6(C)CC(C)(C)N(C(C)=O)c7ccc(NC(=O)c8ccc(-c9ccccc9)cc8)cc76)cc5)nn4)nn3)c2)c2c(N)c(C(=O)NC(C)(C)C)sc2n1"
  value_reported: "65%"

Where do these numbers come from? They come from ChEMBL document CHEMBL1649105.
